- target_under_test: full length human BTLA expressed in a Jurkat T cell line (human, UniProt Q7Z6A9 31-289)
- test: cell-based or functional assay
readout: T cell reporter (NFkB signaling), % inhibition (%)
Numeric only. Scale: %

binder	value_reported
7A1 (antibody, IgG1, V domains shown) VH: QVQLQQSGPELVKPGASVKISCKASGYAFSSSWMNWVKQRPGKGLEWIGRIYPGDGDTNYNGKFKGKATLTADKSSSTAYMQLSSLTSEDSAVYFCARRGYGYLAYWGQGTLVTVSA VL: DIVMTQSHKFMSTSVGDRVSITCKASQDVSTAVAWYQQKPGQSPKLLIYSASYRYTGVPDRFTGSGSGTDFTFTISSVQAEDLAVYYCQQHYSTPWTFGGGTKLEIK	20

--- query ---
# binder 16H2 (antibody, IgG1, V domains shown) VH: EVQLQQSGPELVQPGASVKISCKASGYTFTDYYMIWVKQSHGKSLEWIGNINPNNGGTTYNQKFKGKATLTVDKSSSTAYMGLPSLTSEDSAVYYCARGGLRPLYFDYWGQGTTLTVSS VL: NIVMTQSPKSMSMSVGERVTLSCKASENVDTYVSWYQQKPEQSPKLLIYGASNRYTGVPDRFTGSGSATDFTLTISSVQAEDLADYHCGQSYSYPLTFGAGTKLELI ; its T cell reporter (NFkB signaling), % inhibition = 29
